Assay: qHTS Assay for Foot and Mouth Disease Virus Antivirals: Primary Screen against the MLPCN compound library; also: nearly all actives have a fitted effect of over 55% in size; also: potency is read from the fitted curve at half-maximal effect
Settings: FMDV antiviral cell-based qHTS; series mostly up to 57.9 µM
The whole screen tested about 410,000 compounds, of which about 2,000 (0.49%) were called active. Inconclusive results (about 8%) are left out. This is one part of a sample in which actives are shown more often than they occur.
measuredProperty: Potency

Below, 8 compounds whose answers are already recorded.
>>> reportedvalue("COC(=O)c1ccc(-c2nc3ccccc3[nH]2)cc1")
"15.8 µM (active)"
>>> reportedvalue("O=C(OC(C(=O)Nc1ccc(Cl)cc1C(F)(F)F)c1ccccc1)c1c(Cl)cccc1Cl (configuration not stated)")
"inactive"
>>> reportedvalue("CC(C)CN1CCN(C(=O)COC(=O)c2ccc(S(C)(=O)=O)c([N+](=O)[O-])c2)CC1")
"inactive"
>>> reportedvalue("Cc1ccc(S(=O)(=O)N(C)CC(=O)Nc2ccncc2)cc1")
"inactive"
>>> reportedvalue("COc1cccc(-n2c(=O)c3c(C)c(C(=O)N(C)C)sc3n(Cc3ccc(F)cc3Cl)c2=O)c1")
"inactive"
>>> reportedvalue("CCOC(=O)c1cc(-c2ccccc2)n(CCC(=O)N2CCN(c3ccccc3OC)CC2)c1C")
"inactive"
>>> reportedvalue("C=CCn1c(SCC(=O)Nc2cccnc2Cl)nnc1-c1ccccc1F")
"inactive"
>>> reportedvalue("OC[C@@H]1CN(Cc2ccc(Cl)cc2)C[C@H](n2cnc3c(NC4CCCC4)ncnc32)O1")
"inactive"

Quick batch: Potency for everything below.
1. COc1ccc(-c2ccc(C(=O)N3CCN(C)CC3)c3occc23)c(C)c1
2. O=C(CCCc1nc2ccccc2s1)N1CCN(S(=O)(=O)c2cccs2)CC1
3. COc1ccccc1NC(=O)C1=C(C)NC(SCC(=O)c2ccccc2)=C(C#N)C1c1ccco1 (configuration not stated)

1: inactive; 2: 25.1 µM (active); 3: inactive

Report Potency for each item below.
1. O=C1Nc2ccc([N+](=O)[O-])cc2OC1CCN1CCN(c2ccccc2)CC1 (configuration not stated)
2. CCOc1ccccc1/C=N/n1c(C)nc2ccccc2c1=O
3. CCN(CC)CCN(C(=O)c1ccc2c(c1)CCCC2)c1nc2ccc(C)cc2s1
4. CC1Cc2ccccc2N1c1ncnc(N)c1[N+](=O)[O-] (configuration not stated)
5. CS(=O)(=O)c1ccc(C(=O)Nc2cccc(-c3nc4ccccc4[nH]3)c2)cc1
6. C=C(C(=O)c1ccccc1)C(c1ccccc1)C(C)C(=O)c1ccccc1 (configuration not stated)
7. NS(=O)(=O)c1ccc(Nc2nc(-c3ccc(O)cc3O)cs2)cc1

["inactive", "inactive", "inactive", "inactive", "inactive", "inactive", "inactive"]
